Measured values drawn from patent US11332472B2 for this set.

# measurementTarget: USP7 (Homo sapiens, UniProt Q93009, C315A)
# Construct: 0.25 nM His-His-USP7 (aa208-560, [C315A]) was incubated with compound; His-His (N)
# Sequence (Q93009 208-560 C315A): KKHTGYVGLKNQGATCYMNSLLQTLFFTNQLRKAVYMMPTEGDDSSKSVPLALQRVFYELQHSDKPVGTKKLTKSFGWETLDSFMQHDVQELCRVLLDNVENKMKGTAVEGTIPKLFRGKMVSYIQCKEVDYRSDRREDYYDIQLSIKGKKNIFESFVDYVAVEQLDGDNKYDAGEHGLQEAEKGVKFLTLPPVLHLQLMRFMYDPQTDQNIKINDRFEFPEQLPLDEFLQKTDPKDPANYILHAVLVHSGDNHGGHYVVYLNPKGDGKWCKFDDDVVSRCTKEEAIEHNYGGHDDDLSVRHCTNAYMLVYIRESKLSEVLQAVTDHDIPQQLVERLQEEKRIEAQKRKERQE
# assayProcedure: Inhibition of USP7 by Fluorescence Intensity (FLINT) readings, Ubiquitin-Rhodamine-110 substrate
# Assay type: biochemical
# settings: 0.25 nM His-His-USP7 (aa208-560, [C315A]); compound 60 minutes at 30° C.; 500 nM Ubiquitin-Rhodamine substrate; 11-point curves
metric: IC50 (µM)
Numbers only, in µM.

Would you please look over these solved cases?
[
  {
    "compound": "O=C([C@@H]1CCC(F)(F)C[C@H]1c1cnco1)N1CCC(O)(Cn2cnc3c(Cl)scc3c2=O)CC1 (relative stereo)",
    "units": "µM",
    "IC50": 6.64
  },
  {
    "compound": "O=C(Cc1ccc2c(c1)NC(=O)C2)Nc1ccc2ncn(CC3(O)CCN(C(=O)[C@@H]4CCCC[C@H]4c4ccccc4)CC3)c(=O)c2n1 (relative stereo)",
    "units": "µM",
    "IC50": 0.0158
  }
]

Consider now this further compound.
IC50 for O=C([C@@H]1CCC(F)(F)C[C@H]1c1ccsc1)N1CCC(O)(Cn2cnc3c(-c4ccccc4)scc3c2=O)CC1 (single isomer, unassigned) ?
0.31

====

# measurementTarget: USP7 (Homo sapiens, UniProt Q93009, C315A)
# Construct: 0.25 nM His-His-USP7 (aa208-560, [C315A]) was incubated with compound; His-His (N)
# assayProcedure: Inhibition of USP7 by Fluorescence Intensity (FLINT) readings, Ubiquitin-Rhodamine-110 substrate
# Format: biochemical
# settings: 0.25 nM His-His-USP7 (aa208-560, [C315A]); compound 60 minutes at 30° C.; 500 nM Ubiquitin-Rhodamine substrate; 11-point curves
// returns no unless IC50 is strictly below 400 nM, in which case yes

Record excerpt, results attached:
[
  {
    "compound": "O=C([C@@H]1CCCC[C@H]1c1ccccc1)N1CCC(O)(Cn2cnc3c(ccn3-c3ccsc3)c2=O)CC1 (relative stereo)",
    "assignedClass": "yes"
  },
  {
    "compound": "COc1ccc(-n2ccc3c(=O)n(CC4(O)CCN(C(=O)[C@@H]5CCCC[C@H]5c5ccccc5)CC4)cnc32)cc1 (relative stereo)",
    "assignedClass": "yes"
  },
  {
    "compound": "COc1ccc(-n2ccc3c(=O)n(CC4(O)CCN(C(=O)C5CCCCN5c5ccccc5)CC4)cnc32)cc1 (stereo not drawn)",
    "assignedClass": "no"
  }
]

In plain terms, does COc1ccc(-n2ccc3c(=O)n(CC4(O)CCN(C(=O)[C@@H]5CCCC[C@H]5c5nccn5C)CC4)cnc32)cc1 (single isomer, unassigned) come in under 400 nM for IC50?
no

In plain terms, does O=C([C@@H]1CCC(F)(F)C[C@H]1c1ccccc1)N1CCC(O)(Cn2cnc3c(ccn3-c3ccccc3)c2=O)CC1 (single isomer, unassigned) [Example 36] come in under 400 nM for IC50?
yes

====

# measurementTarget: USP7 (Homo sapiens, UniProt Q93009, C315A)
# Construct: 0.25 nM His-His-USP7 (aa208-560, [C315A]) was incubated with compound; His-His (N)
# assayProcedure: Inhibition of USP7 by Fluorescence Intensity (FLINT) readings, Ubiquitin-Rhodamine-110 substrate
# Assay type: biochemical
# settings: 0.25 nM His-His-USP7 (aa208-560, [C315A]); compound 60 minutes at 30° C.; 500 nM Ubiquitin-Rhodamine substrate; 11-point curves
// returns FALSE unless IC50 is strictly below 0.5 µM, in which case TRUE

Record excerpt, results attached:
[
  {
    "compound": "Cn1ccc2c(=O)n(CC3(O)CCN(C(=O)[C@@H]4CCCC[C@H]4c4ccsc4)CC3)cnc21 (relative stereo)",
    "measurementTarget": "USP7 (Homo sapiens, UniProt Q93009, C315A)",
    "assignedClass": "TRUE"
  },
  {
    "compound": "O=C([C@@H]1CCC(F)(F)C[C@H]1c1ccccc1)N1CCC(O)(Cn2cnc3c(ccn3C3CC3)c2=O)CC1 (single isomer, unassigned)",
    "measurementTarget": "USP7 (Homo sapiens, UniProt Q93009, C315A)",
    "assignedClass": "TRUE"
  },
  {
    "compound": "O=C([C@@H]1CCCC[C@H]1n1cccc1)N1CCC(O)(Cn2cnc3c(ccn3-c3ccccc3)c2=O)CC1 (single isomer, unassigned) [Example 13]",
    "measurementTarget": "USP7 (Homo sapiens, UniProt Q93009, C315A)",
    "assignedClass": "FALSE"
  },
  {
    "compound": "O=C([C@@H]1OCCO[C@@H]1c1ccccc1)N1CCC(O)(Cn2cnc3c(ccn3-c3ccccc3)c2=O)CC1 (single isomer, unassigned) [Example 5]",
    "measurementTarget": "USP7 (Homo sapiens, UniProt Q93009, C315A)",
    "assignedClass": "FALSE"
  },
  {
    "compound": "Cc1cc([C@@H]2CC(F)(F)CC[C@H]2C(=O)N2CCC(O)(Cn3cnc4c(-c5ccccc5)scc4c3=O)CC2)cs1 (relative stereo)",
    "measurementTarget": "USP7 (Homo sapiens, UniProt Q93009, C315A)",
    "assignedClass": "FALSE"
  },
  {
    "compound": "O=C([C@@H]1CC(F)(F)CC[C@H]1c1ccccc1)N1CCC(O)(Cn2cnc3c(-c4ccccc4)scc3c2=O)CC1 (single isomer, unassigned) [Example 78]",
    "measurementTarget": "USP7 (Homo sapiens, UniProt Q93009, C315A)",
    "assignedClass": "FALSE"
  },
  {
    "compound": "CC(C)n1ccc2c(=O)n(CC3(O)CCN(C(=O)[C@@H]4CCC(F)(F)C[C@H]4c4ccccc4)CC3)cnc21 (single isomer, unassigned)",
    "measurementTarget": "USP7 (Homo sapiens, UniProt Q93009, C315A)",
    "assignedClass": "TRUE"
  },
  {
    "compound": "O=C(C1CCCCC1c1ccc(F)cc1)N1CCC(O)(Cn2cnc3c(ccn3-c3ccccc3)c2=O)CC1 (single isomer, unassigned)",
    "measurementTarget": "USP7 (Homo sapiens, UniProt Q93009, C315A)",
    "assignedClass": "FALSE"
  },
  {
    "compound": "COc1ccc(-n2ccc3c(=O)n(CC4(O)CCN(C(=O)C5CCCN5c5ccccc5)CC4)cnc32)cc1 (stereo not drawn)",
    "measurementTarget": "USP7 (Homo sapiens, UniProt Q93009, C315A)",
    "assignedClass": "FALSE"
  },
  {
    "compound": "Cn1ccc2c(=O)n(CC3(O)CCN(C(=O)[C@@H]4CCCC[C@H]4c4ccoc4)CC3)cnc21 (relative stereo)",
    "measurementTarget": "USP7 (Homo sapiens, UniProt Q93009, C315A)",
    "assignedClass": "FALSE"
  }
]

In plain terms, does COc1ccc(-n2ccc3c(=O)n(CC4(O)CCN(C(=O)[C@@H]5CCCC[C@H]5n5cccc5)CC4)cnc32)cc1 (racemic) [Example 15] come in under 0.5 µM for IC50?
TRUE

In plain terms, does Cn1ccc2c(=O)n(CC3(O)CCN(C(=O)[C@@H]4CCC(F)(F)C[C@H]4c4ccccc4)CC3)cnc21 (single isomer, unassigned) come in under 0.5 µM for IC50?
TRUE
